Entry source: patent US20110092544A1

- Tested on: Septoria nodorum
- METHOD_SUMMARY: Test D: wheat glume blotch, preventive spray on wheat seedlings, visual disease rating
- Type: in vivo
- PARTICULARS: 200 ppm, 100 = 100% disease control, 0 = no control
PROPERTY_LABEL: Test D rating (% disease control) (%)
Give bare numbers, in %.

Reference set, count: 3
>  <SMILES_ENTRY>
COc1cc(OC)cc(-c2c(C(C)=O)cnc(C)c2-c2c(F)ccc(OC)c2F)c1

>  <TARGET_OR_TEST_SYSTEM>
Septoria nodorum

>  <Test D rating (% disease control) / %>
0

$$$$
>  <SMILES_ENTRY>
COc1cc(OC)cc(-c2c(C(C)(C)O)cnc(C)c2-c2c(F)cccc2F)c1

>  <TARGET_OR_TEST_SYSTEM>
Septoria nodorum

>  <Test D rating (% disease control) / %>
98

$$$$
>  <SMILES_ENTRY>
C=C(C)c1cnc(C)c(-c2ccc(OC)cc2)c1-c1cc(OC)cc(OC)c1

>  <TARGET_OR_TEST_SYSTEM>
Septoria nodorum

>  <Test D rating (% disease control) / %>
90

$$$$

Now look at this entry.
Request the reported Test D rating (% disease control) associated with COc1cc(OC)cc(-c2c(-c3ccc(F)cc3)cnc(C)c2-c2ccccc2F)c1
0

* * *

- System: Alternaria solani
- METHOD_SUMMARY: Test E: tomato early blight, preventive spray on tomato seedlings, visual disease rating
- Format: in vivo
- PARTICULARS: 200 ppm, 100 = 100% disease control, 0 = no control
Returns Y if the recorded Test E rating (% disease control) is greater than or equal to 90%, and N otherwise.

Consider the worked cases shown below.
>  <COMPOUND>
COc1cc(OC)cc(-c2c(C(C)C)cnc(C)c2-c2ccccc2F)c1

>  <TARGET_OR_TEST_SYSTEM>
Alternaria solani

>  <LABEL>
Y

$$$$
>  <COMPOUND>
COc1cc(OC)cc(-c2c(C(C)(C)O)cnc(C)c2-c2c(F)ccc(F)c2F)c1

>  <TARGET_OR_TEST_SYSTEM>
Alternaria solani

>  <LABEL>
Y

$$$$

In plain terms: is recorded Test E rating (% disease control) at least 90% for COc1cc(OC)cc(-c2c(C(C)O)cnc(C)c2-c2c(F)cc(F)cc2F)c1 (centres unmarked) ?
Y

In plain terms: is recorded Test E rating (% disease control) at least 90% for COc1ccc(-c2c(C)ncc(C(C)(C)O)c2-c2cc(OC)cc(OC)c2)cc1 ?
Y

In plain terms: is recorded Test E rating (% disease control) at least 90% for COc1cc(OC)cc(-c2c(C(O)C(C)C)cnc(C)c2-c2c(F)cc(F)cc2F)c1 (centres unmarked) ?
Y

In plain terms: is recorded Test E rating (% disease control) at least 90% for CNC(=O)c1cnc(C)c(-c2ccccc2)c1-c1cc(OC)cc(OC)c1 ?
Y

In plain terms: is recorded Test E rating (% disease control) at least 90% for COc1cc(OC)cc(-c2c(C(C)C)cnc(C)c2-c2ccccc2)c1 ?
Y

In plain terms: is recorded Test E rating (% disease control) at least 90% for COc1cc(OC)cc(-c2c(C(C)=O)cnc(C)c2-c2ccccc2)c1 ?
N

* * *

- System: Septoria tritici
- METHOD_SUMMARY: Test C: wheat leaf blotch, preventive spray on wheat seedlings, visual disease rating
- Type: in vivo
- PARTICULARS: Zymoseptoria tritici, 504 h, 200 ppm, 100 = 100% disease control, 0 = no control
Answer each item with its documented pest or weed control at 200 ppm.
One number for each entry, in %.

>  <SMILES_ENTRY>
COc1cc(OC)cc(-c2c(C(C)C)cnc(C)c2-c2ccc(F)cc2)c1

>  <pest or weed control at 200 ppm [%]>
100

$$$$
>  <SMILES_ENTRY>
COc1cc(OC)cc(-c2c(-c3ccccc3)cnc(C)c2-c2ccc(F)cc2)c1

>  <pest or weed control at 200 ppm [%]>
100

$$$$
>  <SMILES_ENTRY>
COc1cc(OC)cc(-c2c(CCl)cnc(C)c2-c2c(F)cc(F)cc2F)c1

>  <pest or weed control at 200 ppm [%]>
96

$$$$

Now look at this entry.
Request the reported pest or weed control at 200 ppm associated with COc1cc(OC)cc(-c2c(C(C)(C)O)cnc(C)c2-c2c(F)cc(F)cc2F)c1
100
